I'd appreciate it if you could supply Activity values for the items below.
Assay: Antioxidant activity assessed as hydroxyl radical scavenging activity at 1.5 uM by ESR spin trapping assay
Type: physicochemical
State the answer as a number, implicitly in %.

## Input Dear colleague, I am looking for the recorded Activity of the following compound: CCOC(=O)/C=C/c1ccc(O)c(OC)c1 [ETHYL FERULATE]
## Output 19

## Input Please answer likewise for COc1cc(/C=C/C(=O)O)ccc1O [FERULATE]
## Output 23

## Input Please answer likewise for "COc1cc(/C=C/C(=O)O[C@H]2CC[C@@]3(C)[C@@H](CC[C@@H]4[C@@H]3CC[C@]3(C)[C@@H]([C@H](C)CC[C@@H](C)C(C)C)CC[C@@H]43)C2)ccc1O"
## Output 23

* * *

Test: Antioxidant activity assessed as superoxide anion radical scavenging activity at 80 uM measured as absorbance (t > infinity) recorded every min for 7 mins by nitroblue tetrazolium assay (reference value: 1.9 +/- 0.01)
Assay type: physicochemical
I'd appreciate it if you could supply Activity values for the items below.
Respond using a number only.

## Input Dear colleague, I am looking for the recorded Activity of the following compound: "CC[C@H](/C=C/[C@@H](C)[C@H]1CC[C@H]2[C@@H]3CC=C4C[C@@H](OC(=O)/C=C/c5ccc(O)c(OC)c5)CC[C@]4(C)[C@H]3CC[C@]12C)C(C)C"
## Output 1.76

## Input Please answer likewise for "COc1cc(/C=C/C(=O)O[C@H]2CC[C@@]3(C)C(=CC[C@H]4[C@@H]5CC[C@H]([C@H](C)CC[C@@H](C)C(C)C)[C@@]5(C)CC[C@@H]43)C2)ccc1O"
## Output 1.4

## Input Please answer likewise for "CC[C@H](CC[C@@H](C)[C@H]1CC[C@H]2[C@@H]3CC=C4C[C@@H](OC(=O)/C=C/c5ccc(O)c(OC)c5)CC[C@]4(C)[C@H]3CC[C@]12C)C(C)C"
## Output 1.38

## Input Please answer likewise for COc1cc(/C=C/C(=O)O)ccc1O [FERULATE]
## Output 1.4

## Input Please answer likewise for "COc1cc(/C=C/C(=O)O[C@H]2CC[C@@]3(C)C(=CC[C@H]4[C@@H]5CC[C@H]([C@H](C)CCCC(C)C)[C@@]5(C)CC[C@@H]43)C2)ccc1O"
## Output 1.71

## Input Please answer likewise for "CC[C@H](CC[C@@H](C)[C@H]1CC[C@H]2[C@@H]3CC[C@H]4C[C@@H](OC(=O)/C=C/c5ccc(O)c(OC)c5)CC[C@]4(C)[C@H]3CC[C@]12C)C(C)C"
## Output 1.35

* * *

Assay: Antioxidant activity assessed as DPPH radical scavenging activity at 60 uM measured as absorbance (t -> infinity) after 10 secs by UV-visible spectrophotometry
Type: physicochemical
Conditions: 10 s
I'd appreciate it if you could supply Activity values for the items below.

## Input Dear colleague, I am looking for the recorded Activity of the following compound: COc1cc(/C=C/C(=O)O)ccc1O [FERULATE]
## Output 0.53

## Input Please answer likewise for "COc1cc(/C=C/C(=O)O[C@H]2CC[C@@]3(C)C(=CC[C@H]4[C@@H]5CC[C@H]([C@H](C)CC[C@@H](C)C(C)C)[C@@]5(C)CC[C@@H]43)C2)ccc1O"
## Output 0.7

## Input Please answer likewise for "CC[C@H](/C=C/[C@@H](C)[C@H]1CC[C@H]2[C@@H]3CC=C4C[C@@H](OC(=O)/C=C/c5ccc(O)c(OC)c5)CC[C@]4(C)[C@H]3CC[C@]12C)C(C)C"
## Output 0.72

## Input Please answer likewise for "COc1cc(/C=C/C(=O)O[C@H]2CC[C@@]3(C)[C@@H](CC[C@@H]4[C@@H]3CC[C@]3(C)[C@@H]([C@H](C)CC[C@@H](C)C(C)C)CC[C@@H]43)C2)ccc1O"
## Output 0.79

## Input Please answer likewise for CCOC(=O)/C=C/c1ccc(O)c(OC)c1 [ETHYL FERULATE]
## Output 0.58

## Input Please answer likewise for "CC[C@H](CC[C@@H](C)[C@H]1CC[C@H]2[C@@H]3CC=C4C[C@@H](OC(=O)/C=C/c5ccc(O)c(OC)c5)CC[C@]4(C)[C@H]3CC[C@]12C)C(C)C"
## Output 0.64

## Input Please answer likewise for "COc1cc(/C=C/C(=O)O[C@H]2CC[C@@]3(C)C(=CC[C@H]4[C@@H]5CC[C@H]([C@H](C)CCCC(C)C)[C@@]5(C)CC[C@@H]43)C2)ccc1O"
## Output 0.74

## Input Please answer likewise for "CC[C@H](CC[C@@H](C)[C@H]1CC[C@H]2[C@@H]3CC[C@H]4C[C@@H](OC(=O)/C=C/c5ccc(O)c(OC)c5)CC[C@]4(C)[C@H]3CC[C@]12C)C(C)C"
## Output 0.64

## Input Please answer likewise for "COC(=O)/C=C/c1ccc(O)c(OC)c1"
## Output 0.57

* * *

Experiment: Antioxidant activity assessed as superoxide anion radical scavenging activity at 80 uM measured as rate constant recorded every min for 7 mins by nitroblue tetrazolium assay (reference value: 0.188 +/- 0.001 /min)
Assay type: physicochemical
readout-kind: K (min⁻¹)
State the answer as a number, implicitly in min⁻¹.

## Input Dear colleague, I am looking for the recorded K of the following compound: "CC[C@H](CC[C@@H](C)[C@H]1CC[C@H]2[C@@H]3CC=C4C[C@@H](OC(=O)/C=C/c5ccc(O)c(OC)c5)CC[C@]4(C)[C@H]3CC[C@]12C)C(C)C"
## Output 0.19

## Input Please answer likewise for "COc1cc(/C=C/C(=O)O[C@H]2CC[C@@]3(C)[C@@H](CC[C@@H]4[C@@H]3CC[C@]3(C)[C@@H]([C@H](C)CC[C@@H](C)C(C)C)CC[C@@H]43)C2)ccc1O"
## Output 0.19

## Input Please answer likewise for CCOC(=O)/C=C/c1ccc(O)c(OC)c1 [ETHYL FERULATE]
## Output 0.16

## Input Please answer likewise for "COC(=O)/C=C/c1ccc(O)c(OC)c1"
## Output 0.15

## Input Please answer likewise for "CC[C@H](CC[C@@H](C)[C@H]1CC[C@H]2[C@@H]3CC[C@H]4C[C@@H](OC(=O)/C=C/c5ccc(O)c(OC)c5)CC[C@]4(C)[C@H]3CC[C@]12C)C(C)C"
## Output 0.21

## Input Please answer likewise for COc1cc(/C=C/C(=O)O)ccc1O [FERULATE]
## Output 0.14

## Input Please answer likewise for "COc1cc(/C=C/C(=O)O[C@H]2CC[C@@]3(C)C(=CC[C@H]4[C@@H]5CC[C@H]([C@H](C)CCCC(C)C)[C@@]5(C)CC[C@@H]43)C2)ccc1O"
## Output 0.11

## Input Please answer likewise for "CC[C@H](/C=C/[C@@H](C)[C@H]1CC[C@H]2[C@@H]3CC=C4C[C@@H](OC(=O)/C=C/c5ccc(O)c(OC)c5)CC[C@]4(C)[C@H]3CC[C@]12C)C(C)C"
## Output 0.11

## Input Please answer likewise for "COc1cc(/C=C/C(=O)O[C@H]2CC[C@@]3(C)C(=CC[C@H]4[C@@H]5CC[C@H]([C@H](C)CC[C@@H](C)C(C)C)[C@@]5(C)CC[C@@H]43)C2)ccc1O"
## Output 0.18

* * *

Test: Antioxidant activity assessed as superoxide anion radical scavenging activity at 160 uM measured as rate constant recorded every min for 7 mins by nitroblue tetrazolium assay (reference value: 0.188 +/- 0.001 /min)
Format: physicochemical
I'd appreciate it if you could supply K values for the items below.
State the answer as a number, implicitly in min⁻¹.

## Input Dear colleague, I am looking for the recorded K of the following molecule: "COc1cc(/C=C/C(=O)O[C@H]2CC[C@@]3(C)C(=CC[C@H]4[C@@H]5CC[C@H]([C@H](C)CCCC(C)C)[C@@]5(C)CC[C@@H]43)C2)ccc1O"
## Output 0.11

## Input Please answer likewise for COc1cc(/C=C/C(=O)O)ccc1O [FERULATE]
## Output 0.19

## Input Please answer likewise for "CC[C@H](CC[C@@H](C)[C@H]1CC[C@H]2[C@@H]3CC=C4C[C@@H](OC(=O)/C=C/c5ccc(O)c(OC)c5)CC[C@]4(C)[C@H]3CC[C@]12C)C(C)C"
## Output 0.13

## Input Please answer likewise for "COc1cc(/C=C/C(=O)O[C@H]2CC[C@@]3(C)[C@@H](CC[C@@H]4[C@@H]3CC[C@]3(C)[C@@H]([C@H](C)CC[C@@H](C)C(C)C)CC[C@@H]43)C2)ccc1O"
## Output 0.13

## Input Please answer likewise for "CC[C@H](CC[C@@H](C)[C@H]1CC[C@H]2[C@@H]3CC[C@H]4C[C@@H](OC(=O)/C=C/c5ccc(O)c(OC)c5)CC[C@]4(C)[C@H]3CC[C@]12C)C(C)C"
## Output 0.14

## Input Please answer likewise for "CC[C@H](/C=C/[C@@H](C)[C@H]1CC[C@H]2[C@@H]3CC=C4C[C@@H](OC(=O)/C=C/c5ccc(O)c(OC)c5)CC[C@]4(C)[C@H]3CC[C@]12C)C(C)C"
## Output 0.11
